experimental target: recombinant soluble homotrimeric HA of A/Anhui/1/05 (H5N1) (Influenza A virus A/Anhui/1/2005(H5N1))
measurement description: trimeric HA microarray, transfection supernatant set 2
condition notes: remark: other sources report otherwise
Listing of entries alongside the reported Trimeric HA Binding: RLU.
observation type: Trimeric HA Binding: RLU (RLU)

binder	numeric readout
TCN-522 (3212_I12) (antibody, V domains shown) VH: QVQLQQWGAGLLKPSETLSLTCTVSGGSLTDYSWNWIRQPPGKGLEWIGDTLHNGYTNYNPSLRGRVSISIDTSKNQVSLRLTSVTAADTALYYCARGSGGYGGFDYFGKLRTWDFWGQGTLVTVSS VL: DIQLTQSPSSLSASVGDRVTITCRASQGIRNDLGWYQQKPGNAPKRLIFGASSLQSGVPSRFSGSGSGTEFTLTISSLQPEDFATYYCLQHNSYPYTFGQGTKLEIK	2030
TCN-528 (5087_P17) (antibody, V domains shown) VH: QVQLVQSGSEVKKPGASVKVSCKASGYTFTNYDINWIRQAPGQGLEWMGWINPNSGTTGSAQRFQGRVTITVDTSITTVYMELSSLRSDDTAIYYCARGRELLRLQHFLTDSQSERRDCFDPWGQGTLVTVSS VL: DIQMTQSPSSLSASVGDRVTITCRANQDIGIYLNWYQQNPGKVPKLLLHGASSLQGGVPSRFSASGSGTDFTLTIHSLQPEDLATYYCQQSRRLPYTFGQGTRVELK	21200
TCN-504 (3251_K17) (antibody, V domains shown) VH: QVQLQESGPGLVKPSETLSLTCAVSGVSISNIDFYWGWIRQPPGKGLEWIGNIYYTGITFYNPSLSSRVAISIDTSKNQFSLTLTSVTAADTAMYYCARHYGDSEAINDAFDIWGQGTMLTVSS VL: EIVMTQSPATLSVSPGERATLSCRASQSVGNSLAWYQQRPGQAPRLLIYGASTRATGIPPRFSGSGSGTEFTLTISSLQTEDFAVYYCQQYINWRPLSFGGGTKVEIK	31000

Hello, the source for this data is patent US20150086555A1, in case you need it.
